assay: mutant yeast GCN4 reporter luminescence inhibitors – S. cerevisiae, eIF2B-epsilon R284H, Beta-Glo luminescence, primary screen (AID 688); settings: GCN4-lacZ luminescence; measured here: mutant yeast growth, toxicity, concentration not given here
Among all 27,000 compounds or so, about 250 (0.93%) were called active. Shown is part of a subset that was picked to be rich in actives.
Recorded growth inhibition for the following compounds
Give the value, in units of %, as a plain number.

Data request: What value of growth inhibition has been recorded for this entry: C/C(=N\NS(=O)(=O)c1ccc(Br)cc1)c1cccs1
Data returned: 2.78

***
Data request: What value of growth inhibition has been recorded for this entry: CCCNC(=O)N1CCN(C(=O)NCCC)CC1
Data returned: 5.13

Data request: Same read-out for COc1ccc(C2N=C(N)N=C(N)N2c2ccccc2)cc1OC (stereo not given) ?
Data returned: -25

Data request: Same read-out for O=C(Cc1ccccc1)Nc1c(C(=O)N2CCCCCC2)cnn1-c1ccccc1 ?
Data returned: 8.33

Data request: Same read-out for CCCCNC(=O)C1CCCNC1=O (stereo not given) ?
Data returned: 26.5

Data request: Same read-out for Cn1c2c(c(=O)n(C)c1=O)C(c1cccc([N+](=O)[O-])c1)Nc1ccccc1O2 (stereo not given) ?
Data returned: -14.3

Data request: Same read-out for O=C(CSc1nnc(-c2ccccn2)n1-c1ccccc1)Nc1ccc2c(c1)OCO2 ?
Data returned: -57.1

Data request: Same read-out for Cc1ccc(-c2nnn(CC(=O)N(CCO)C(C(=O)NC(C)(C)C)c3ccncc3)n2)cc1 (stereo not given) ?
Data returned: 14.8

Data request: Same read-out for COc1ccc(CNC(=O)CCn2cccc2)cc1 ?
Data returned: 33.3

Data request: Same read-out for CCN(CC(=O)NC1CCS(=O)(=O)C1)c1nc(-c2cccnc2)nc2ccccc12 (stereo not given) ?
Data returned: -30.9

Data request: Same read-out for CC(=O)Nc1ccc(NC(=O)CSCc2cnn(-c3ccccc3)c2-n2cccc2)cc1 ?
Data returned: -16.7

Data request: Same read-out for Cc1[nH][nH]c(=O)c1N=Nc1ccccc1 ?
Data returned: 8.33

Data request: Same read-out for COc1ccc(OC)c(NC(=O)CN2CCN(C(=O)c3ccco3)CC2)c1 ?
Data returned: 18.5

Data request: Same read-out for O=C(c1cc2sccc2n1Cc1ccc(F)cc1)N1CCc2ccccc21 ?
Data returned: 13.5

Data request: Same read-out for O=c1c2ccccc2oc2nc3n(c(=O)c12)CCCS3 ?
Data returned: 4

Data request: Same read-out for COc1ccc(-c2cc(C(=O)NCc3ccco3)no2)cc1OC ?
Data returned: 2.7

Data request: Same read-out for CC(=O)NC1(c2cccc(F)c2)CCN(CC(=O)NC(C)C)CC1 ?
Data returned: 4.55

Data request: Same read-out for CC(C)(C)NC(=O)Cn1c(SCC(=O)Nc2nccs2)nc2ccccc21 ?
Data returned: -29.4

Data request: Same read-out for Cc1ccc(NC(=O)N2CCC(O)(c3cccnc3)CC2)cc1 ?
Data returned: 12.8

Data request: Same read-out for O=C1c2ccncc2C(=O)N1C1CCCCC1 ?
Data returned: 8.93

Data provenance is PubChem BioAssay AID688.
